# Protocol Notes: Lethal dose against mice after intraperitoneal administration; range = 25-28
# Format: toxicity, organism-based
# Assay Setup: mouse, in vivo, ip
Assay Endpoint: LD50 (mg/kg)
Write the number in mg/kg without appending the unit.

Exercise: Return LD50 for the following compound: COC(=O)NC1=NCC(c2ccccc2)CN1 (stereo unspecified)
Solution: 27

====

# Protocol Notes: Lethal dose against mice after intraperitoneal administration; range = 31-53
# Type: toxicity, organism-based
# Assay Setup: mouse, in vivo, ip
Assay Endpoint: LD50
Param answer (str): number followed by unit.

Exercise: Return LD50 for the following compound: NC1=NCC(c2ccccc2)CN1 (stereo unspecified)
Solution: 42 mg/kg

====

# Protocol Notes: Lethal dose against mice after peroral administration; RANGE = 50-122
# Type: toxicity, organism-based
# Assay Setup: mouse, in vivo, po
Assay Endpoint: LD50 (mg/kg)
Write the number in mg/kg without appending the unit.

Exercise: Return LD50 for the following compound: NC1=NCC(c2ccccc2)CN1 (stereo unspecified)
Solution: 78

====

# Protocol Notes: Lethal dose against mice after peroral administration; range = 111-182
# Format: toxicity, organism-based
# Assay Setup: mouse, in vivo, po
Assay Endpoint: LD50

Exercise: Return LD50 for the following compound: COC(=O)NC1=NCC(c2ccccc2)CN1 (stereo unspecified)
Solution: 142 mg/kg
